Experiment: The drug is tested on Z-001 corresponding to mouse gut metagenome with ENA study accession number: PRJEB37062 and ENA sample accession number: ERS12561801 for biotransformation under anaerobic condition. The drug concentrations were measured over 9 timepoints collected between 0 and 24 hours of incubation by liquid-chromatography-coupled mass spectrometry (LC–MS); further: call rule not given here
Settings: 2 µM
PROPERTY LABEL: Bacterial Biotransformation

O=C1CC2(CCCC2)CC(=O)N1CCCCN1CCN(c2ncccn2)CC1 [BUSPIRONE]: Compound NOT metabolized
COC(=O)C(c1ccccc1)C1CCCCN1 (centres undefined) [METHYLPHENIDATE]: Compound metabolized
CC(C)[C@H]1CC[C@H](C(=O)N[C@H](Cc2ccccc2)C(=O)O)CC1 [NATEGLINIDE]: Compound NOT metabolized
CCCC(C)(COC(N)=O)COC(=O)NC(C)C (centres undefined) [CARISOPRODOL]: Compound metabolized

Data provenance is ChEMBL document CHEMBL5724914.
